- PROCEDURE SUMMARY: folding enthalpy; higher = less favourable; fluorescence melt of hairpins on a sequencing array, two-state fit
- CONDITION INFO: sodium 0.088 M
folding enthalpy listing for selected sequences.

>  <SEQ TEXT>
CGTACGGAAACGTAAACG ((((((....)))..)))

>  <folding enthalpy / kcal/mol>
-17.3

$$$$
>  <SEQ TEXT>
GATCATATGCATGATC ((((((....))))))

>  <folding enthalpy / kcal/mol>
-40.4

$$$$
>  <SEQ TEXT>
GGCTGTGGAAACATAGCC ((((.((....)).))))

>  <folding enthalpy / kcal/mol>
-43.4

$$$$
>  <SEQ TEXT>
GCATTGCGAAAGCTACGC ((.(.((....)).).))

>  <folding enthalpy / kcal/mol>
-14

$$$$
>  <SEQ TEXT>
GAGGGTGGAAACACCCTC (((((((....)))))))

>  <folding enthalpy / kcal/mol>
-35

$$$$
>  <SEQ TEXT>
GATCAATGTTTTGATC ((((((....))))))

>  <folding enthalpy / kcal/mol>
-29.4

$$$$

---

- PROCEDURE SUMMARY: folding enthalpy; higher = less favourable; fluorescence melt of hairpins on a sequencing array, two-state fit
- CONDITION INFO: sodium 0.088 M

>  <SEQ TEXT>
GGTCGCGAAAGCGGAACC ((((((....)))..)))

>  <folding enthalpy>
-15.3 kcal/mol

$$$$
>  <SEQ TEXT>
GATCCACGCGTGGATC ((((((....))))))

>  <folding enthalpy>
-49.9 kcal/mol

$$$$
>  <SEQ TEXT>
GGTTTGGGAAACCAGATC (.(.(((....))).).)

>  <folding enthalpy>
-10.3 kcal/mol

$$$$
>  <SEQ TEXT>
ATCAGTGAAAAATCACTGAA ....................

>  <folding enthalpy>
-20.6 kcal/mol

$$$$
>  <SEQ TEXT>
GGTGTCGAAAGACGACC ((((((....))).)))

>  <folding enthalpy>
-19.9 kcal/mol

$$$$
>  <SEQ TEXT>
GAGCCCGAAAGGGGACTC ((((((....)))..)))

>  <folding enthalpy>
-18.9 kcal/mol

$$$$
>  <SEQ TEXT>
GCCTCCGAAAGGATGGC ((((((....))).)))

>  <folding enthalpy>
-36.6 kcal/mol

$$$$
>  <SEQ TEXT>
GTGACACCGAAAGGTCAC (((..(((....))))))

>  <folding enthalpy>
-25 kcal/mol

$$$$
>  <SEQ TEXT>
GTACGGACGAAAGTCTAC (((..(((....))))))

>  <folding enthalpy>
-10.2 kcal/mol

$$$$
>  <SEQ TEXT>
GTCGCCGAAAGGCCCGAC ((((((....)))..)))

>  <folding enthalpy>
-11.6 kcal/mol

$$$$
>  <SEQ TEXT>
GATCATAGACATGATC ((((((....))))))

>  <folding enthalpy>
-34.4 kcal/mol

$$$$
>  <SEQ TEXT>
GGTGCTCCGAAAGGAACC (((..(((....))))))

>  <folding enthalpy>
-11.3 kcal/mol

$$$$
>  <SEQ TEXT>
GATCTGCGGTCAGATC ((((((....))))))

>  <folding enthalpy>
-32.9 kcal/mol

$$$$
>  <SEQ TEXT>
GTGGAACCGAAAGGTCAC (((..(((....))))))

>  <folding enthalpy>
-21.9 kcal/mol

$$$$
>  <SEQ TEXT>
GAAAGCGGAAACGTTTTC ((((.((....)).))))

>  <folding enthalpy>
-30.5 kcal/mol

$$$$
>  <SEQ TEXT>
GCGTCAGGAAACCGACAC (.(((.(....).))).)

>  <folding enthalpy>
-16 kcal/mol

$$$$
>  <SEQ TEXT>
GCTAGTACGAAAGTAAGC (((..(((....))))))

>  <folding enthalpy>
-14.7 kcal/mol

$$$$
>  <SEQ TEXT>
GCGTCCGAACGC ((((....))))

>  <folding enthalpy>
-21.8 kcal/mol

$$$$
>  <SEQ TEXT>
GCCTAGCGAAAGCGATGC ((.(.((....)).).))

>  <folding enthalpy>
-13.4 kcal/mol

$$$$
>  <SEQ TEXT>
GTCATTGGAAACAATGGC (.(((((....))))).)

>  <folding enthalpy>
-28.6 kcal/mol

$$$$
>  <SEQ TEXT>
GAGCGCGAAAGCGGCCTC ((((((....)))..)))

>  <folding enthalpy>
-11.7 kcal/mol

$$$$
>  <SEQ TEXT>
GCAGTTGGAAACAATTGC (((.(((....))).)))

>  <folding enthalpy>
-31.2 kcal/mol

$$$$
>  <SEQ TEXT>
GTGAGAGGAAACCCTCAC (((((.(....).)))))

>  <folding enthalpy>
-26.2 kcal/mol

$$$$
>  <SEQ TEXT>
GCTGTTCGAAAGAAAGC (((.(((....))))))

>  <folding enthalpy>
-15.6 kcal/mol

$$$$
>  <SEQ TEXT>
GCGCCCGAAAGGGGACGC ((((((....)))..)))

>  <folding enthalpy>
-19.6 kcal/mol

$$$$
>  <SEQ TEXT>
GGCAGAGGAAACTCTGTC (.(((((....))))).)

>  <folding enthalpy>
-30.7 kcal/mol

$$$$
>  <SEQ TEXT>
GCATTGGGAAACCAACGC ((.((((....)))).))

>  <folding enthalpy>
-29.4 kcal/mol

$$$$
>  <SEQ TEXT>
GATCGCAGTTGCGATC ((((((....))))))

>  <folding enthalpy>
-41.1 kcal/mol

$$$$
>  <SEQ TEXT>
GCTGTTGGAAACGATAGC (((.(.(....).).)))

>  <folding enthalpy>
-20.9 kcal/mol

$$$$
>  <SEQ TEXT>
GTGCGACCGAAAGGTCAC (((..(((....))))))

>  <folding enthalpy>
-13.1 kcal/mol

$$$$
>  <SEQ TEXT>
GATCGAACTATCGATC ((((((....))))))

>  <folding enthalpy>
-43.8 kcal/mol

$$$$
>  <SEQ TEXT>
GCGAACGAAAGTTAGCGC ((((((....)))..)))

>  <folding enthalpy>
-31 kcal/mol

$$$$
>  <SEQ TEXT>
GATCTCCAATGAGATC ((((((....))))))

>  <folding enthalpy>
-34.2 kcal/mol

$$$$
>  <SEQ TEXT>
GTCCCGCGAAAGCGAGAC (((.(((....))).)))

>  <folding enthalpy>
-32.5 kcal/mol

$$$$
>  <SEQ TEXT>
GGTCAGGGAAACCTGGCC ((.((((....)))).))

>  <folding enthalpy>
-42.2 kcal/mol

$$$$
>  <SEQ TEXT>
GACAGCCGAAAGGCGGTC (((.(((....))).)))

>  <folding enthalpy>
-20.1 kcal/mol

$$$$
>  <SEQ TEXT>
GCACTGCGAAAGCAATGC (((.(((....))).)))

>  <folding enthalpy>
-40.9 kcal/mol

$$$$
>  <SEQ TEXT>
GATGTGGGAAACCGCATC ((((.((....)).))))

>  <folding enthalpy>
-46.4 kcal/mol

$$$$
>  <SEQ TEXT>
GATGCTGGAAACGGTATC (((.(.(....).).)))

>  <folding enthalpy>
-22.8 kcal/mol

$$$$
>  <SEQ TEXT>
GCAGCGCGAAAGCTCGGC ((.(.((....)).).))

>  <folding enthalpy>
-20.9 kcal/mol

$$$$
>  <SEQ TEXT>
GAACGGGGAAACCCGTTC (((((((....)))))))

>  <folding enthalpy>
-34.2 kcal/mol

$$$$
>  <SEQ TEXT>
GAGAAGCGAAAGCTCCTC (((.(((....))).)))

>  <folding enthalpy>
-21.7 kcal/mol

$$$$
>  <SEQ TEXT>
GATCAACTTATTGATC ((((((....))))))

>  <folding enthalpy>
-35.4 kcal/mol

$$$$
>  <SEQ TEXT>
GCTAGGCGAAAGCTAAGC (((..((....))..)))

>  <folding enthalpy>
-18.6 kcal/mol

$$$$
>  <SEQ TEXT>
GCCCCAGGAAACCGAGGC (((.(.(....).).)))

>  <folding enthalpy>
-16.3 kcal/mol

$$$$
>  <SEQ TEXT>
GAAAGCCCGAAAGGGTTC (((..(((....))))))

>  <folding enthalpy>
-10.6 kcal/mol

$$$$
>  <SEQ TEXT>
GTTACTGGAAACAGCAAC (((.(((....))).)))

>  <folding enthalpy>
-28 kcal/mol

$$$$
>  <SEQ TEXT>
GGCATTGGAAACAACGCC (((.(((....))).)))

>  <folding enthalpy>
-34.4 kcal/mol

$$$$
>  <SEQ TEXT>
GCACCGCGAAAGCCGTGC ((((.((....)).))))

>  <folding enthalpy>
-31.1 kcal/mol

$$$$
>  <SEQ TEXT>
GATCAGTTACTGATC ((((((...))))))

>  <folding enthalpy>
-41.7 kcal/mol

$$$$
